Sourced from patent US8058447B2

# target of assay: UniProtKB P08235
# Sequence (P08235 734-984 limits assumed): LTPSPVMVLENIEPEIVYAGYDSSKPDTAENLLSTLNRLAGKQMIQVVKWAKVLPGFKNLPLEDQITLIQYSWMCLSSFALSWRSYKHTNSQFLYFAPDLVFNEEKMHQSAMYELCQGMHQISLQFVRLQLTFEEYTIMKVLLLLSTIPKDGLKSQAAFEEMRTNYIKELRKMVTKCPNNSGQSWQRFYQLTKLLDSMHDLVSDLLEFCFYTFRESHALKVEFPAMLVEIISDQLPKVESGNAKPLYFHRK
# assay remarks: Cellular in vitro assay to determine the inhibitory MR activity (GAL4-MR chimera luciferase reporter in CHO K1 cells)
# measurement context: antagonism of aldosterone-stimulated luciferase in CHO K1 cells expressing GAL4-MR chimera
reported property: pIC50
# log scale: pIC50 equals minus log10 of the concentration in mol/L

Q: Would you mind telling me what pIC50 value was observed for CC1=C(C#N)C(c2cccc3c(=O)cc(C)oc23)C(C(=O)CC2CCCC2)=C(C)N1 (stereo not shown) [Example 41] ?
A: 6.54

Q: Now consider CC1=C(C#N)C(c2ccc([N+](=O)[O-])c3c(=O)cc(C)oc23)C(C(=O)OC(C)C)=C(C)N1 (stereo not shown) [Example 32] and answer again.
A: 6.98

Q: Now consider CC1=C(C#N)C(c2ccc(F)c3c(=O)cc(C)oc23)C(C(=O)CCC2CCC2)=C(C)N1 (stereo not shown) [Example 15] and answer again.
A: 7.03

Q: Now consider CC1=C(C#N)C(c2ccc(F)c3c(=O)cc(C)oc23)C(C(=O)CCC(C)C)=C(C)N1 (stereo not shown) [Example 14] and answer again.
A: 6.71
